Hey, just so you know, these numbers are from patent US20110236380A1.

target: T1, human IL-13 (human, UniProt P35225 35-146, limits assumed); assay: DOM10 sandwich ELISA: dAb dilution series mixed with 150 pg/ml human IL-13, loss of IL-13 detection by the kit antibodies
T1 construct: Biotinylated and captured on a streptavidin chip in the Biacore assays; not biotinylated (IL-13, GSK) in the ELISA and HEK Blue-STAT6 assays; also called human interleukin-13; IL-13 (GSK)
T1 sequence (P35225 35-146 limits assumed): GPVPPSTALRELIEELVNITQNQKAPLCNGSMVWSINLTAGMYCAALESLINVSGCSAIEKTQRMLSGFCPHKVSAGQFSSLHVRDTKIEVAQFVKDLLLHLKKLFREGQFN
Listed binders paired with reported EC50
// units = nM; emit number, no label

These solved cases illustrate the format of a correct answer.
Query: What does the data say about its EC50? Entry: DOM10-53-546 (other) VH: GVQLLESGGGLVQPGGSLRLSCAASGFVFPWYDMGWVRQAPGKGLEWVSSIDWKGGKTYYADSVKGRFTISRDNSKNTLYLQMNSLRAEDTAVYYCATAEDEPGYDYWGQGTLVTVSS
Response: 0.125

Query: What does the data say about its EC50? Entry: DOM10-53-616 (other) VH: GVQLLESGGGLVQPGGSLRLSCAASGFVFPWYDMGWVRQAPGKGLEWVSSIDWHGKITYYADSVKGRFTISRDNSKNTLYLQMNSLRAEDTAVYYCATAEDEPGYDYWGQGTLVTVSS
Response: 0.048

Query: What does the data say about its EC50? Entry: DOM10-53-567 (other) VH: GVQLLESGGGLVQPGGSLRLSCAASGFVFAWYDMGWVRQAPGKGLEWVSSIDWHGEVTYYADSVKGRFTISRDNSKNTLYLQMNSLRAEDTAVYYCATAEDEPGYDYWGQGTLVTVSS
Response: 0.021

Proceed to the following item.
Query: What does the data say about its EC50? Entry: DOM10-53-474 (other, Anti-IL-13 immunoglobulin single variable domain (dAb), monomer) VH: GVQLLESGGGLVQPGGSLRLSCAASGFTFAWYDMGWVRQAPGKGLEWVSSIDWHGEVTYYADSVKGRFTISRDNSKNTLYLQMNSLRAEDTAVYYCATAEDEPGYDYWGQGTLVTVSS
Response: 0.217
